Cited source for all entries: PubChem BioAssay AID1159580

test-details: chemical genetic growth profiling, strain panel (AID 1159580);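 also: tested at 20 µM; growth read once vehicle control cultures reached saturation at 30 °C; 1 = growth at the plate median or of vehicle wells; lower values mean less growth of the strain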
assay-conditions: S. cerevisiae deletion strains, growth OD, locus YKL068W, hits give low values
About 2,000 (36%) of roughly 5,500 compounds were called active. Another 18% or so got no clear call; they are omitted. This is one part of the list.
normalized growth: recorded values
I'd appreciate a reply containing only the number, no unit.

// known answers, use as guide
[
  {
    "compound": "Oc1ccc(/C=C/c2cc(O)cc(O)c2)cc1",
    "endpoint-name": "normalized growth",
    "test-result": 0.977
  },
  {
    "compound": "CN(C)CCCO[C@H]1[C@@H](C(O)CO)OC2OC(C)(C)O[C@@H]21 (stereo not given in full)",
    "endpoint-name": "normalized growth",
    "test-result": 0.99
  },
  {
    "compound": "CCOC(N)=O",
    "endpoint-name": "normalized growth",
    "test-result": 1.01
  },
  {
    "compound": "CCOc1ccc2c(c1)C(C)=CC(C)(C)N2",
    "endpoint-name": "normalized growth",
    "test-result": 0.989
  },
  {
    "compound": "O=C(O)c1cc(O)c(O)c(O)c1",
    "endpoint-name": "normalized growth",
    "test-result": 1
  }
]

*Q* normalized growth for "NCc1ccc(S(N)(=O)=O)cc1" ?
*A* 0.987

*Q* normalized growth for "C=CCc1cc(OC)c2c(c1OC)OCO2" ?
*A* 0.94

*Q* normalized growth for "COc1cc(C(=O)O)c(O)c2c1OCO2" ?
*A* 1.01

*Q* normalized growth for "CC12CCC(CC1)C(C)(C)O2" ?
*A* 1.01

*Q* normalized growth for "O=C(/C=C/c1ccc(O)c(O)c1)O[C@@H]1C[C@](O)(C(=O)O)C[C@@H](O)[C@H]1O" ?
*A* 1.01

====

normalized growth: recorded values
test-details: chemical genetic growth profiling, strain panel (AID 1159580);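 also: tested at 20 µM; growth read once vehicle control cultures reached saturation at 30 °C; 1 = growth at the plate median or of vehicle wells; lower values mean less growth of the strain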
assay-conditions: S. cerevisiae deletion strains, growth OD, locus YER016W, strain bim1, hits give low values
The campaign covered roughly 5,500 compounds. About 2,000 (36%) were called active. Not shown: some 18% with an inconclusive outcome. The list shows a part of the results.
I'd appreciate a reply containing only the number, no unit.

[
  {
    "compound": "O=C(O)P(=O)(O)O",
    "endpoint-name": "normalized growth",
    "test-result": 0.983
  }
]

*Q* normalized growth for Nc1nc(N)c2nc(CNc3ccc(C(=O)NC(CCC(=O)O)C(=O)O)cc3)cnc2n1 (stereo not drawn) ?
*A* 0.998

*Q* normalized growth for CC(=O)O[C@H]1CC[C@@]2(C)C(=CCC3C2CC[C@]2(C)C(=O)CCC32)C1 (stereo partly drawn) ?
*A* 1.02

====

test-details: chemical genetic growth profiling, strain panel (AID 1159580);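 also: tested at 20 µM; growth read once vehicle control cultures reached saturation at 30 °C; 1 = growth at the plate median or of vehicle wells; lower values mean less growth of the strain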
assay-conditions: S. cerevisiae deletion strains, growth OD, locus YHR030C, strain SLT2
About 2,000 (36%) of roughly 5,500 compounds were called active. Not shown: some 18% with an inconclusive outcome. Cut-off read from the data, not from the text of the source: active = normalized growth mostly below about 0.91 (no sharp cut-off); inconclusive = no clear call, values can overlap the other calls; inactive = mostly above about 0.92. Some of the results follow.
Outcome field: choose from YES = active, NO = inactive

*Q* Dear colleague, could you share the recorded outcome for COc1ccccc1OCC(O)CN1CCN(CC(=O)Nc2c(C)cccc2C)CC1 (configuration not stated) when you have a moment?
*A* NO

*Q* Dear colleague, could you share the recorded outcome for Nc1nc(N)c2nc(CNc3ccc(C(=O)NC(CCC(=O)O)C(=O)O)cc3)cnc2n1 (configuration not stated) when you have a moment?
*A* NO

*Q* Dear colleague, could you share the recorded outcome for "COc1ccccc1-c1cc(=O)c2cccc(OC)c2o1" when you have a moment?
*A* YES

*Q* Dear colleague, could you share the recorded outcome for "COc1ccccc1-c1cc(=O)c2c(OC)cccc2o1" when you have a moment?
*A* NO

*Q* Dear colleague, could you share the recorded outcome for "COC(=O)c1ccc([N+](=O)[O-])cc1Cl" when you have a moment?
*A* NO

*Q* Dear colleague, could you share the recorded outcome for "NC(=O)c1ccc(N)nc1" when you have a moment?
*A* NO

*Q* Dear colleague, could you share the recorded outcome for "COc1ccc(/C=C/C(=O)c2cc(O)ccc2O)cc1" when you have a moment?
*A* YES
